// reported Inhibition of cAMP formation for each item listed
Molecular target: endogenous CGRP receptors in SK-N-MC cells (Homo sapiens, UniProt O60894+Q16602)
Construct: host or cells: SK-N-MC human neuroblastoma cells
Sequence (Q16602 23-461): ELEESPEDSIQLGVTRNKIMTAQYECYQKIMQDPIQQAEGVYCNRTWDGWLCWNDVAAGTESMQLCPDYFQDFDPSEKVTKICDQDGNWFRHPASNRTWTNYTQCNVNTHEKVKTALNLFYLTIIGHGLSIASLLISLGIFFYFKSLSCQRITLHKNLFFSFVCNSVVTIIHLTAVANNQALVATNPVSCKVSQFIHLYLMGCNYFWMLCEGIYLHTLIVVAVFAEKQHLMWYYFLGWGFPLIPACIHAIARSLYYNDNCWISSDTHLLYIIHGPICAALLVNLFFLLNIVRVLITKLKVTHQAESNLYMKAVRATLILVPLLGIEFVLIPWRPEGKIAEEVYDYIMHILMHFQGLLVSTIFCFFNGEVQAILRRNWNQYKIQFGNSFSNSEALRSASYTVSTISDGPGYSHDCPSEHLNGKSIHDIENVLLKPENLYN
Sequence (O60894 27-148 partner): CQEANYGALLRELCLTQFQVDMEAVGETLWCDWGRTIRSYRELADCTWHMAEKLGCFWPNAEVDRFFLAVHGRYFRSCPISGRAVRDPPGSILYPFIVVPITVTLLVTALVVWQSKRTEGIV
Assay: Action on the formation of cAMP in the human neuroblastoma cell line SK-N-MC
Type: cell-based
Conditions: at 1 nM CGRP, compounds used in 10 μM concentrations
reported endpoint: Inhibition of cAMP formation (%)

{"molecule": "COc1cccc(C2=C(c3ccc(S(C)(=O)=O)cc3)CC(CN(C)C)C2=O)c1.Cl (stereo not shown)", "val": 88}
{"molecule": "CN(C)CC1CC(c2ccc(S(C)(=O)=O)cc2)=C(c2cccc(F)c2)C1=O.Cl (stereo not shown)", "val": 82}
{"molecule": "CN(C)CC1CC(c2ccc(S(C)(=O)=O)cc2)=C(c2cccc(O)c2)C1=O.Cl (stereo not shown)", "val": 86}
{"molecule": "CN(C)CC1CC(c2ccc(S(C)(=O)=O)cc2)=C(c2cc(F)cc(F)c2)C1=O.Cl (stereo not shown)", "val": 71}

====

Target: CGRP1 receptors (Cavia porcellus, UniProt H0UV86+Q8R4C6)
Sequence (H0UV86 23-464): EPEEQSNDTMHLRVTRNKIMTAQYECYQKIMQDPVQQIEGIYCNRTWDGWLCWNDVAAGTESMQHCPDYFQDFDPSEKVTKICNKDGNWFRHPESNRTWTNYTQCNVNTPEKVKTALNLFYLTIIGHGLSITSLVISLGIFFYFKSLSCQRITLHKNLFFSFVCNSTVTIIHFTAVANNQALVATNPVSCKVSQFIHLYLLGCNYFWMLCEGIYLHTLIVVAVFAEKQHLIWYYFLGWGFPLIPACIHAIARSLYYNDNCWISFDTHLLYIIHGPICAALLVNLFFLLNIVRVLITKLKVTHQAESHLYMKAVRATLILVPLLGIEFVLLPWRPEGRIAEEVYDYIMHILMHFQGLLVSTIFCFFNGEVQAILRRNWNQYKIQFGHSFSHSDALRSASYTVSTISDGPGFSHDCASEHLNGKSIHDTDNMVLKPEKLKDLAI
Sequence (Q8R4C6 27-148): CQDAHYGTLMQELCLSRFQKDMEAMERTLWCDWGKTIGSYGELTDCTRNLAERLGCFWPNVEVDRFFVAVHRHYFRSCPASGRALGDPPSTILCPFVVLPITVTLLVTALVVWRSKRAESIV
Experiment: CGRP receptor affinity on isolated, spontaneously beating guinea pig atrium
Conditions: read-out: IC50 value for CGRP-antagonistic action; isolated guinea pig atria stimulated by h-α-CGRP
pIC50: −log10 of the molar value.
# pIC50 per record follows

{"molecule": "COc1cccc(C2=C(c3ccc(S(C)(=O)=O)cc3)CC(CN(C)C)C2=O)c1.Cl (stereo not shown) [Example 13, hydrochloride]", "assayed system": "CGRP1 receptors (Cavia porcellus, UniProt H0UV86+Q8R4C6)", "pIC50": 4.49}
{"molecule": "CN(C)CC1CC(c2ccc(S(C)(=O)=O)cc2)=C(c2cccc(F)c2)C1=O.Cl (stereo not shown) [Example 5, hydrochloride]", "assayed system": "CGRP1 receptors (Cavia porcellus, UniProt H0UV86+Q8R4C6)", "pIC50": 4.60}
{"molecule": "CN(C)CC1CC(c2ccc(S(C)(=O)=O)cc2)=C(c2cccc(O)c2)C1=O.Cl (stereo not shown) [Example 3, hydrochloride]", "assayed system": "CGRP1 receptors (Cavia porcellus, UniProt H0UV86+Q8R4C6)", "pIC50": 4.11}
{"molecule": "CN(C)CC1CC(c2ccc(S(C)(=O)=O)cc2)=C(c2cc(F)cc(F)c2)C1=O.Cl (stereo not shown) [Example 1, hydrochloride]", "assayed system": "CGRP1 receptors (Cavia porcellus, UniProt H0UV86+Q8R4C6)", "pIC50": 4.89}

====

inhibition at 12.5 µM reference
Target: human calcitonin receptor-related receptor (CRLR) and human RAMP1 (Homo sapiens, UniProt O60894+Q16602)
Construct: purchased Euroscreen, Brussels, Belgium; host or cells: CHO-K1 cells (transfected), membranes
Sequence (Q16602 23-461): as the sequence (Q16602 23-461) above
Sequence (O60894 27-148 partner): as the sequence (O60894 27-148 partner) above
Assay: GTPγS assay: CGRP-induced [35S]GTPγS incorporation into CHO-K1 membranes
Type: biochemical
reported endpoint: inhibition at 12.5 µM (%)

{"molecule": "CN(C)CC1CC(c2ccc(S(C)(=O)=O)cc2)=C(c2cc(F)cc(F)c2)C1=O.Cl (stereo not shown) [Example 1, hydrochloride]", "val": 65.1}
{"molecule": "CN(C)CC1CC(c2ccc(S(C)(=O)=O)cc2)=C(c2cccc(O)c2)C1=O.Cl (stereo not shown) [Example 3, hydrochloride]", "val": 65.1}
{"molecule": "CN(C)CC1CC(c2ccc(S(C)(=O)=O)cc2)=C(c2cccc(F)c2)C1=O.Cl (stereo not shown) [Example 5, hydrochloride]", "val": 62.4}
{"molecule": "COc1cccc(C2=C(c3ccc(S(C)(=O)=O)cc3)CC(CN(C)C)C2=O)c1.Cl (stereo not shown) [Example 13, hydrochloride]", "val": 63.9}
